# PROTOCOL: Oral bioavailability in ICR mouse at 1 mg/kg by LC/MS/MS analysis
# Type: ADME, organism-based
# TEST CONDITIONS: in vivo
MEASURED ENDPOINT: bioavailability
State the value, then name its unit.

Input: Please report the recorded bioavailability for "CCOc1ccccc1CN1CCc2cc(NC(=O)[C@H]3c4ccc(OC)nc4CCN3C(=O)CCCC(=O)O)ccc21" .
Output: 19%

###

# PROTOCOL: MRT in ICR mouse at 0.1 mg/kg, iv or 1 mg/kg, po by LC/MS/MS analysis
# Assay type: ADME, organism-based
# TEST CONDITIONS: in vivo
MEASURED ENDPOINT: MRT
The number alone won't do; follow it with the unit.

Input: Entry "CCOc1ccccc1CN1CCc2cc(NC(=O)[C@H]3c4ccc(OC)nc4CCN3C(=O)CCCC(=O)O)ccc21" : reported MRT = ?
Output: 4.1 h

###

# PROTOCOL: Cmax in ICR mouse at 0.1 mg/kg, iv or 1 mg/kg, po by LC/MS/MS analysis
# Type: ADME, organism-based
# TEST CONDITIONS: in vivo
MEASURED ENDPOINT: Cmax
Quote the value and follow it with the unit of measurement.

Input: Can you share its Cmax? I mean this molecule: "CCOc1ccccc1CN1CCc2cc(NC(=O)[C@H]3c4ccc(OC)nc4CCN3C(=O)CCCC(=O)O)ccc21"
Output: 227 ng/mL

###

# PROTOCOL: AUC (0 to 8 hrs) in ICR mouse at 0.1 mg/kg, iv or 1 mg/kg, po by LC/MS/MS analysis
# Type: ADME, organism-based
# TEST CONDITIONS: in vivo
MEASURED ENDPOINT: AUC(0-t) (ng·h/mL)
Quick note: give the figure in ng·h/mL, leave out the unit.

Input: What does the data say about its AUC(0-t)? Entry: "CCOc1ccccc1CN1CCc2cc(NC(=O)[C@H]3c4ccc(OC)nc4CCN3C(=O)CCCC(=O)O)ccc21"
Output: 1720
